Provenance of the data: patent US20050148495A1

assay: in vivo; conditions: both, Sprague-Dawley, rat, plasma, intravenous, 0.2 mg/kg
Non-standard residues stand in square brackets, D forms with d. Residues, ends and D or L forms follow the SMILES beside them. d1Nal = N[C@H](Cc1cccc2ccccc12)C(=O)O
readout_name: clearance

compound="CC(C)C[C@@H](NC(=O)[C@H](N)CCCCN)C(=O)N[C@H](Cc1ccccc1)C(=O)N[C@H](CCCNC(=N)N)C(=O)N[C@H](Cc1cccc2ccccc12)C(=O)N[C@H](CCC(N)=O)C(=O)N[C@H](C)C(=O)N[C@H](CCCCN)C(=O)N[C@H](Cc1cccc2ccccc12)C(N)=O [XMP.629] (H-[dK][dL][dF][dR][d1Nal][dQ][dA][dK][d1Nal]-NH2)" readout_name=clearance measured_result="~5.33 mL/min/kg"
